Measured AUC(0-inf), listed per entry for reference.
test: Pharmacokinetic evaluation in rats; type: in vivo; conditions: male, Sprague-Dawley, rat, plasma, po, 3 mg/kg, 3 mg/kg by gavage, group G2, rat 7, read-out: AUCINF_obs
measured-property: AUC(0-inf) (ng·h/mL)

compound: N#CCNC(=O)c1ccc(-c2ccnc(Nc3ccc(N4CCOCC4)cc3)n2)cc1 [example 9, reference compound]
measured-property: AUC(0-inf)
endpoint-value: 3210
--
compound: [2H]C1([2H])COCC([2H])([2H])N1c1ccc(Nc2nccc(-c3ccc(C(=O)NCC#N)cc3)n2)cc1 [example 5]
measured-property: AUC(0-inf)
endpoint-value: 5520

====

experiment: Pharmacokinetic evaluation in rats; assay type: in vivo; conditions: male, Sprague-Dawley, rat, plasma, po, 3 mg/kg, 3 mg/kg by gavage, group G1, rat 1
measured-property: Cmax

compound: [2H]C([2H])(C#N)NC(=O)c1ccc(-c2ccnc(Nc3ccc(N4CC([2H])([2H])OC([2H])([2H])C4)cc3)n2)cc1
measured-property: Cmax
endpoint-value: 423 ng/mL
//
compound: [2H]C([2H])(C#N)NC(=O)c1ccc(-c2ccnc(Nc3ccc(N4CCOCC4)cc3)n2)cc1
measured-property: Cmax
endpoint-value: 469 ng/mL
//
compound: N#CCNC(=O)c1ccc(-c2ccnc(Nc3ccc(N4CCOCC4)cc3)n2)cc1 [example 9, reference compound]
measured-property: Cmax
endpoint-value: 368 ng/mL

====

assay: Pharmacokinetic evaluation in rats; format: in vivo; conditions: male, Sprague-Dawley, rat, plasma, po, 3 mg/kg, 3 mg/kg by gavage, group G3, rat 10, read-out: AUCINF_obs
Recorded AUC(0-inf) by entry
measured-property: AUC(0-inf) (ng·h/mL)

compound: [2H]C([2H])(C#N)NC(=O)c1ccc(-c2ccnc(Nc3ccc(N4C([2H])([2H])C([2H])([2H])OC([2H])([2H])C4([2H])[2H])cc3)n2)cc1 [example 3]
measured-property: AUC(0-inf)
endpoint-value: 2350
--
compound: N#CCNC(=O)c1ccc(-c2ccnc(Nc3ccc(N4CCOCC4)cc3)n2)cc1 [example 9, reference compound]
measured-property: AUC(0-inf)
endpoint-value: 1850
--
compound: [2H]C1([2H])OC([2H])([2H])C([2H])([2H])N(c2ccc(Nc3nccc(-c4ccc(C(=O)NCC#N)cc4)n3)cc2)C1([2H])[2H] [example 1]
measured-property: AUC(0-inf)
endpoint-value: 3370

====

experiment: Pharmacokinetic evaluation in rats; assay type: in vivo; details: male, Sprague-Dawley, rat, plasma, po, 3 mg/kg, 3 mg/kg by gavage, group G2, rat 5

compound: [2H]C1([2H])COCC([2H])([2H])N1c1ccc(Nc2nccc(-c3ccc(C(=O)NCC#N)cc3)n2)cc1
uom: h
Tmax: 2

compound: N#CCNC(=O)c1ccc(-c2ccnc(Nc3ccc(N4CCOCC4)cc3)n2)cc1 [example 9, reference compound]
uom: h
Tmax: 2

====

assay: Pharmacokinetic evaluation in rats; format: in vivo; conditions: male, Sprague-Dawley, rat, plasma, po, 3 mg/kg, 3 mg/kg by gavage, group G3, rat 9

molecule: [2H]C([2H])(C#N)NC(=O)c1ccc(-c2ccnc(Nc3ccc(N4C([2H])([2H])C([2H])([2H])OC([2H])([2H])C4([2H])[2H])cc3)n2)cc1 [example 3]
AUC(0-t) / ng·h/mL: 4100

molecule: N#CCNC(=O)c1ccc(-c2ccnc(Nc3ccc(N4CCOCC4)cc3)n2)cc1 [example 9, reference compound]
AUC(0-t) / ng·h/mL: 3420

molecule: [2H]C1([2H])OC([2H])([2H])C([2H])([2H])N(c2ccc(Nc3nccc(-c4ccc(C(=O)NCC#N)cc4)n3)cc2)C1([2H])[2H] [example 1]
AUC(0-t) / ng·h/mL: 6170

====

assay: Pharmacokinetic evaluation in rats; format: in vivo; conditions: male, Sprague-Dawley, rat, plasma, po, 3 mg/kg, 3 mg/kg by gavage, group G2, rat 8
Reported Tmax values follow for various compounds

compound: [2H]C1([2H])COCC([2H])([2H])N1c1ccc(Nc2nccc(-c3ccc(C(=O)NCC#N)cc3)n2)cc1
Tmax [h]: 4
//
compound: N#CCNC(=O)c1ccc(-c2ccnc(Nc3ccc(N4CCOCC4)cc3)n2)cc1 [example 9, reference compound]
Tmax [h]: 4

====

assay: Pharmacokinetic evaluation in rats; format: in vivo; details: male, Sprague-Dawley, rat, plasma, po, 3 mg/kg, 3 mg/kg by gavage, group G1, rat 4
// reported Tmax per item

compound: [2H]C([2H])(C#N)NC(=O)c1ccc(-c2ccnc(Nc3ccc(N4CC([2H])([2H])OC([2H])([2H])C4)cc3)n2)cc1
Tmax / h: 2

compound: N#CCNC(=O)c1ccc(-c2ccnc(Nc3ccc(N4CCOCC4)cc3)n2)cc1 [example 9, reference compound]
Tmax / h: 2

compound: [2H]C([2H])(C#N)NC(=O)c1ccc(-c2ccnc(Nc3ccc(N4CCOCC4)cc3)n2)cc1
Tmax / h: 2

====

This listing pairs compounds with measured AUC(0-inf).
experiment: Pharmacokinetic evaluation in rats; type: in vivo; conditions: male, Sprague-Dawley, rat, plasma, po, 3 mg/kg, 3 mg/kg by gavage, group G2, rat 6, read-out: AUCINF_obs
measured-property: AUC(0-inf) (ng·h/mL)

compound: N#CCNC(=O)c1ccc(-c2ccnc(Nc3ccc(N4CCOCC4)cc3)n2)cc1 [example 9, reference compound]
uom: ng·h/mL
endpoint-value: 3340
--
compound: [2H]C1([2H])COCC([2H])([2H])N1c1ccc(Nc2nccc(-c3ccc(C(=O)NCC#N)cc3)n2)cc1 [example 5]
uom: ng·h/mL
endpoint-value: 5490

====

In this section we review reported AUC(0-inf) values for a set of compounds.
assay: Pharmacokinetic evaluation in rats; type: in vivo; details: male, Sprague-Dawley, rat, plasma, po, 3 mg/kg, 3 mg/kg by gavage, group G2, rat 8, read-out: AUCINF_obs

compound: [2H]C1([2H])COCC([2H])([2H])N1c1ccc(Nc2nccc(-c3ccc(C(=O)NCC#N)cc3)n2)cc1 [example 5]
AUC(0-inf) (ng·h/mL): 3900
//
compound: N#CCNC(=O)c1ccc(-c2ccnc(Nc3ccc(N4CCOCC4)cc3)n2)cc1 [example 9, reference compound]
AUC(0-inf) (ng·h/mL): 2300

====

test: Pharmacokinetic evaluation in rats; type: in vivo; conditions: male, Sprague-Dawley, rat, plasma, po, 3 mg/kg, 3 mg/kg by gavage, group G3, Mean of 4 rats

compound: N#CCNC(=O)c1ccc(-c2ccnc(Nc3ccc(N4CCOCC4)cc3)n2)cc1 [example 9, reference compound]
Cmax, ng/mL: 365
//
compound: [2H]C([2H])(C#N)NC(=O)c1ccc(-c2ccnc(Nc3ccc(N4C([2H])([2H])C([2H])([2H])OC([2H])([2H])C4([2H])[2H])cc3)n2)cc1
Cmax, ng/mL: 447
//
compound: [2H]C1([2H])OC([2H])([2H])C([2H])([2H])N(c2ccc(Nc3nccc(-c4ccc(C(=O)NCC#N)cc4)n3)cc2)C1([2H])[2H]
Cmax, ng/mL: 653

====

experiment: Pharmacokinetic evaluation in rats; assay type: in vivo; conditions: male, Sprague-Dawley, rat, plasma, po, 3 mg/kg, 3 mg/kg by gavage, group G2, rat 5
measured-property: AUC(0-t) (ng·h/mL)

molecule: [2H]C1([2H])COCC([2H])([2H])N1c1ccc(Nc2nccc(-c3ccc(C(=O)NCC#N)cc3)n2)cc1
measured-property: AUC(0-t)
endpoint-value: 6820
--
molecule: N#CCNC(=O)c1ccc(-c2ccnc(Nc3ccc(N4CCOCC4)cc3)n2)cc1 [example 9, reference compound]
measured-property: AUC(0-t)
endpoint-value: 4080

====

Test: Pharmacokinetic evaluation in rats
Format: in vivo
Settings: male, Sprague-Dawley, rat, plasma, po, 3 mg/kg, 3 mg/kg by gavage, group G1, rat 4, read-out: AUCINF_obs
Method: 12 male Sprague-Dawley rats, 7-8 weeks old, of approximately 200 g body weight, were divided into three groups, four in each group. Rats were feed with standard feed, and were given water, and were started to fast 16 hours before the test. […] After blood sampling, the tube was gently inverted at least 5 times immediately to ensure adequate mixing, and was placed on ice. […] The concentration of the compound of the invention in plasma was determined with LC-MS/MS. […]
measured-property: AUC(0-inf) (ng·h/mL)

compound: [2H]C([2H])(C#N)NC(=O)c1ccc(-c2ccnc(Nc3ccc(N4CCOCC4)cc3)n2)cc1
measured-property: AUC(0-inf)
endpoint-value: 1640
//
compound: [2H]C([2H])(C#N)NC(=O)c1ccc(-c2ccnc(Nc3ccc(N4CC([2H])([2H])OC([2H])([2H])C4)cc3)n2)cc1
measured-property: AUC(0-inf)
endpoint-value: 1530
//
compound: N#CCNC(=O)c1ccc(-c2ccnc(Nc3ccc(N4CCOCC4)cc3)n2)cc1 [example 9, reference compound]
measured-property: AUC(0-inf)
endpoint-value: 1330
